measurement target: GDP loaded biotinylated KRas^G12C protein (Homo sapiens, UniProt P01116, G12C)
Construct: biotin (biotinylated); made in house
Sequence (P01116 1-188 isoform P01116-2 G12C): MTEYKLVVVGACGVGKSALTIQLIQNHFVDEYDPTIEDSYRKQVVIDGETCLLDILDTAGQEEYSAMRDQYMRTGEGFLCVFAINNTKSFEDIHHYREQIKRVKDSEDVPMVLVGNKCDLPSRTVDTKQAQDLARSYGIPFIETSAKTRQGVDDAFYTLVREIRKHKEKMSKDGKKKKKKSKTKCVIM
assay comment: KRasG12C functional assay
Type: biochemical
condition info: HTRF FRET readout of SOS-mediated nucleotide exchange and GST-Raf RBD binding; samples incubated for 4 hrs; read-out: KRasG12C functional assay IC50 value
pIC50: −log10 of the molar value.
Think of 6 as a floor: if pIC50 stands on it or above, it is Condition met; beneath it, Condition not met.

Worked set:
INSERT INTO results (molecule, assigned_category) VALUES
  ('C=CC(=O)N1CCN2c3ncnc4cc(-c5ccccc5C)c(Cl)c(c34)OC[C@@H]2C1', 'Condition met'),
  ('C=CC(=O)N1CCN2c3ncnc4cc(-c5cccc6[nH]ncc56)c(Cl)c(c34)OC[C@@H]2C1', 'Condition not met'),
  ('C=CC(=O)N1CCN2c3ncnc4cc(-c5cccc6c5CN(C)CC6)c(Cl)c(c34)OC[C@@H]2C1', 'Condition not met');

Confirm if pIC50 reported for the molecule C=CC(=O)N1CCN2c3nc(NCCN(C)C)nc4cc(-c5c(C)ccc6[nH]ncc56)c(Cl)c(c34)OC[C@@H]2C1 (single isomer, unassigned) [Example 80] is 6 or above.
Condition met

Hi, just wondering whether C=CC(=O)N1CCN2c3ncnc4cc(-c5cccc6nccnc56)c(Cl)c(c34)OC[C@@H]2C1 shows pIC50 of 6 or higher.
Condition not met

Say whether C=CC(=O)N1CCN2c3ncnc4cc(-c5ccccc5C(=O)NC)c(Cl)c(c34)OC[C@@H]2C1 shows pIC50 of 6 or more.
Condition not met
